tested on: biotinyl-Trp-oxazolone; assay: self-aminoacylation, catalytic enhancement (BWO) (fold over background); higher = more active; k-Seq, kA / k0A0; sequences stand for … in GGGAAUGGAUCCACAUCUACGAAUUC…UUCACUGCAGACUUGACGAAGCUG
Fewer inactive variants are shown than the library holds.
reported_property: self-aminoacylation

Batch request: self-aminoacylation for each of the following sequences.
1. AUGUUUGCUAAUAGUCGUAAG [Fam3.1 aminoacylation ribozyme variant]
2. AUUACCCUGGUCAACGAGUGU [Fam2.1 aminoacylation ribozyme variant]
3. AAGUUUGCAAAUAGUCGCGAG [Fam3.1 aminoacylation ribozyme variant]

1: 5.05; 2: 3.43; 3: 3.06

Batch request: self-aminoacylation for each of the following sequences.
1. AAGAUUGCUAAUUGUCGCAAG [Fam3.1 aminoacylation ribozyme variant]
2. AAGUUUGCUAAAAGUCGAAAG [Fam3.1 aminoacylation ribozyme variant]

1: 3.92; 2: 2.17
